Cited source: patent US11053242B2

assay: In vitro human intestinal S9 hydrolysis assay (formation of compound 1-1); details: human intestinal S9, 1 uM, 37° C., up to 60 minutes
observedProperty: S9 Assay (ability to form compound 1-1)

molecule="COc1cc2c(cc1OC)[C@H]1C[C@@H](COC(=O)CC3(CC(=O)O)CCCC3)[C@H](CC(C)C)CN1CC2 [Compound 3-9]" measurement=++
molecule="COc1cc2c(cc1OC)[C@H]1C[C@@H](COC(=O)CCCCC(=O)O)[C@H](CC(C)C)CN1CC2 [Compound 3-10]" measurement=+++
molecule="COc1cc2c(cc1OC)[C@H]1C[C@@H](COC(=O)N[C@@H](C)C(=O)O)[C@H](CC(C)C)CN1CC2 [Compound 5-47]" measurement=+
molecule="COc1cc2c(cc1OC)[C@H]1C[C@@H](COC(=O)N3CCOC(CN(C)C)C3)[C@H](CC(C)C)CN1CC2 (stereo partly drawn) [Compound 5-4]" measurement=+
molecule="COc1cc2c(cc1OC)[C@H]1C[C@@H](COC(=O)[C@H]3CCNC3)[C@H](CC(C)C)CN1CC2 [Compound 4-7]" measurement=++
molecule="COc1cc2c(cc1OC)[C@H]1C[C@@H](COC(=O)N3CCNCC3)[C@H](CC(C)C)CN1CC2 [Compound 6-1]" measurement=+
molecule="COc1cc2c(cc1OC)[C@H]1C[C@@H](COC(=O)N(C)C(C(=O)O)C(C)C)[C@H](CC(C)C)CN1CC2 (stereo partly drawn) [Compound 5-32]" measurement=++
molecule="COc1cc2c(cc1OC)[C@H]1C[C@@H](COC(=O)C3CCCCC3C(=O)O)[C@H](CC(C)C)CN1CC2 (stereo partly drawn) [Compound 3-6]" measurement=++
molecule="COc1cc2c(cc1OC)[C@H]1C[C@@H](COC(=O)N3CCC[C@@H](C(=O)O)C3)[C@H](CC(C)C)CN1CC2 [Compound 5-54]" measurement=+
